Each recorded value in this set is attributed to patent US20240417469A1.

Catalogue of binders with associated kon
molecular target: T1, recombinant CD3D&E protein (human CD3-his tag) (human, UniProt P04234 22-105; P07766 23-126, limits assumed); experiment: SPR Biacore, Ab captured on Protein A;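 also: humanized antibodies on a Protein A chip, human CD3-his analyte flowed over in serial dilutions for 3 min, dissociation tracked 120–360 s on a Biacore T200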
T1 construct: Analyte in Biacore; also called CD3D&E-His; CD3d&ε-His
T1 sequence (P04234 22-105 limits assumed, chain 1 of 2): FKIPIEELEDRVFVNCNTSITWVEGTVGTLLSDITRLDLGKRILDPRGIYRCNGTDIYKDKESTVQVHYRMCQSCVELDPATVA
T1 sequence (P07766 23-126 limits assumed, chain 2 of 2): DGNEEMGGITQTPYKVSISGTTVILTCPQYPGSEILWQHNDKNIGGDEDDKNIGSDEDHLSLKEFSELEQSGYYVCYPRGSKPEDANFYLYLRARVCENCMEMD
Enter the number, and then the unit.

# Binder, kon
data = [
    ("Hu155A9B1-11 (antibody, V domains shown, humanized mAb) VH: EVQLQESGPGLVKPSETLSLTCTVSGFSISSYNVHWVRQPPGKGLEWMGRVRYNGDTSYNSALKSRLTISRDTSKNQASLKLSSVTAADTAVYYCTRGPYGGSSEPLFDYWGQGTMVTVSS VL: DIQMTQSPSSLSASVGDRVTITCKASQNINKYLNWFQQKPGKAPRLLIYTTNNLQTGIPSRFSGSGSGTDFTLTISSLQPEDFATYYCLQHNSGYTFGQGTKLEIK", "69300 M⁻¹ s⁻¹"),
]

Ask: Can you share its kon? I mean this binder: Hu153A6B1-16 (antibody, V domains shown, humanized mAb) VH: EVQLQESGPGLVKPSETLSLTCTVSGGSISSYNIHWVRQPPGKGLEWMGRIRYNGDTSYNSALKSRLTISRDTSKNQFSLKLSSVTAADTAVYYCTRGPYGGSREPLFDYWGQGTMVTVSS VL: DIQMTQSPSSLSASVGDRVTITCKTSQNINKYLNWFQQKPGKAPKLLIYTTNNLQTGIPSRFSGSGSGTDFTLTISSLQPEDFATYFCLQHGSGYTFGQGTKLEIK
Result: 1.8e+06 M⁻¹ s⁻¹

Ask: What would you report for Hu155A9B1-2 (antibody, V domains shown, humanized mAb) VH: EVQLQESGPGLVKPSETLSLTCTVSGGSISSYNVHWVRQPPGKGLEWIGRVRYNGDTSYNSALKSRVTISRDTSKNQFSLKLSSVTAADTAVYYCARGPYGGSSEPLFDYWGQGTMVTVSS VL: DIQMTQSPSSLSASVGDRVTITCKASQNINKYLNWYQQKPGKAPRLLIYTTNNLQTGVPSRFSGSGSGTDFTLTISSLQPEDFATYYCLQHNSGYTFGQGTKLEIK ?
Result: 445000 M⁻¹ s⁻¹
